system: ACHN; experiment: NCI tumour cell line growth inhibition, 48 h
The source made the active and inactive calls. Rule as the data show it: active = GI50 up to about 1.1 µM and inactive = higher.
Would you mind answering with one of these outcomes? Y (active), N (inactive)

Check out these entries, answers already filled in.
COMPOUND: CC(Oc1ccccc1Cl)C(=O)NN1C(=O)CSC1c1ccc(Cl)cc1 (stereo unspecified)
TARGET: ACHN
QUALITATIVE LABEL: N
//
COMPOUND: Cc1ccc(O)c(C2=CC(c3cccc(Cl)c3)SC(=N)N2)c1 (stereo unspecified)
TARGET: ACHN
QUALITATIVE LABEL: N
//
COMPOUND: CCCCCCCCCC1(N=[N+]=[N-])C(=O)c2ccccc2N(C)C1=O (stereo unspecified)
TARGET: ACHN
QUALITATIVE LABEL: N
//
COMPOUND: CCc1c(OC(C)=O)c2c(NC3OC(COC(C)=O)C(OC(C)=O)C(OC(C)=O)C3OC(C)=O)nc(SC)nc2oc1=O (stereo unspecified)
TARGET: ACHN
QUALITATIVE LABEL: N
//
COMPOUND: O=C1/C(=C/c2ccccc2)N=C2Sc3c([nH]cnc3=O)N12
TARGET: ACHN
QUALITATIVE LABEL: N

Please share the test call associated with `Cn1nc(-c2ccccc2)c(C(=O)/C=C/c2ccc(F)cc2)c(N2CCCCC2)c1=O` .
N

Same read-out for Cc1nnc(N/N=C(/C(=O)C(C#N)c2ccccc2)C(C#N)c2ccccc2)n1N (stereo unspecified) ?
N

Same read-out for `COc1ccc(O)c(C#N)c1C#N` ?
N

Same read-out for `Cc1ccccc1-n1c(=S)[nH]c2c(sc(=O)n2-c2ccccc2C)c1=O` ?
N

Same read-out for O=P(CCOc1ccccc1OCCP(=O)(c1ccccc1)c1ccc2c(c1)OCCOCCOCCOCCO2)(c1ccccc1)c1ccc2c(c1)OCCOCCOCCOCCO2 (stereo unspecified) ?
N

Same read-out for `C=CCc1cccc2cc(C(N)=O)c(=N)oc12` ?
N

Same read-out for `CC(C)(C)c1ccc2c(c1)S(=O)(=O)Nc1ccc(Cl)cc1NS(=O)(=O)c1cc(C(C)(C)C)ccc1OCCOCCOCCO2` ?
N

Same read-out for CCCCc1ccc(Nc2nc(Cl)c3ncn(C4CC(Oc5ccc(C)cc5)C(COc5ccc(C)cc5)O4)c3n2)cc1 (stereo unspecified) ?
N

Same read-out for `Cc1nc2c(=O)n(C)c(=O)n(C)c2o1` ?
N

Same read-out for `Cc1cccc(Nc2nn3c(=O)c4c5c(sc4nc3s2)CCCC5)c1` ?
N

###

system: MDA-N; assay: NCI tumour cell line growth inhibition, 48 h
The source made the active and inactive calls. Rule as the data show it: active = GI50 up to about 1.1 µM and inactive = higher.
Would you mind answering with one of these outcomes? TRUE = active, FALSE = inactive

COMPOUND: COC(=O)c1cc(C(=CCC[C@H]2CC[C@@]3(C)C(CCC4C3CC[C@@]3(C)C4CC[C@@H]3C(C)CCCC(C)C)C2)c2cc(Cl)c(OC(=O)c3ccccc3)c(C(=O)OC)c2)cc(Cl)c1OC(=O)c1ccccc1 (some centres undefined)
QUALITATIVE LABEL: FALSE
--
COMPOUND: BrCC(Br)(c1ccccc1)c1ccccc1-c1cc(-c2ccccc2)cc(-c2ccccc2)n1 (centres undefined)
QUALITATIVE LABEL: FALSE

Please share the test call associated with `Cc1cccc(/C=C2\CCCc3ccccc3C2=O)c1` .
FALSE

Same read-out for `COC(=O)c1ccc(Cc2cc(Cc3ccc(C(=O)OC)cc3)cc(Cc3ccc(C(=O)OC)cc3)c2)cc1` ?
FALSE

Same read-out for `CN(C)/N=N/c1nc2c(c(=O)n(C)c(=O)n2C)n1C` ?
FALSE

Same read-out for N=C(N)CCNC(=O)C1CCC(N)=N1 (centres undefined) ?
FALSE

Same read-out for `CNC(=S)N/N=C(\C)c1cc(OC)ccc1O` ?
FALSE

Same read-out for `CCCC(=O)n1[nH]c(=O)n(C(C)(C)C)c1=O` ?
FALSE

Same read-out for `O=C(Cn1c2ccc(Br)cc2c2nc3ccccc3nc21)Nc1ccccc1` ?
FALSE

Same read-out for `O=C1/C(=C/c2ccccc2)NC(=S)N1CN1CCOCC1` ?
FALSE

Same read-out for Nc1nc(I)nc2c1ncn2C1OC(COS(N)(=O)=O)C(O)C1O (centres undefined) ?
TRUE

Reference source: ChEMBL document CHEMBL1201862
